Test system: Cryptococcus neoformans
Conditions: Concentration 32 ug.mL-1; ASSAY_TEST Inhibition of Fungal Growth; detection method Resazurin; Absorption (OD600-OD570); plate type 384well; NBS; CORNING #3640
Description: Antifungal activity against Cryptococcus neoformans H99 ATCC 208821 (CO-ADD:FG_002); MIC in YNB media using NBS plates, by Resazurin OD(600-570)
Measured potencies and affinities stand elsewhere.
measure: Inhibition (%)
Unit % implied. Number only.

In the examples that follow, each entry is paired with its recorded Inhibition.
compound="[C-]#[N+]c1ccc(C(=O)NC(CC#C)C(=O)NCCC)cc1 (stereo not drawn)" measure=Inhibition endpoint_value=-8.61
compound="CCCNC(=O)C(Cc1ccc(F)cc1)NC(=O)c1ccccc1 (stereo not drawn)" measure=Inhibition endpoint_value=-4.63
compound="[C-]#[N+]c1ccc(C(=O)NC(CC)C(=O)NCCC)cc1 (stereo not drawn)" measure=Inhibition endpoint_value=-4.7
compound="[C-]#[N+]c1ccc(C(=O)NC(Cc2ccc(F)cc2)C(=O)NCCC)cc1 (stereo not drawn)" measure=Inhibition endpoint_value=-1.72
compound="CCCNC(=O)C(Cc1ccccc1)NC(=O)Cc1ccccc1 (stereo not drawn)" measure=Inhibition endpoint_value=-5.77
compound="[C-]#[N+]c1ccc(C(=O)NC(CC=C)C(=O)NCCC)cc1 (stereo not drawn)" measure=Inhibition endpoint_value=-8.98

QUERY: Please look at this compound and report its Inhibition: [C-]#[N+]c1ccc(C(=O)NC(Cc2ccccc2F)C(=O)NCCC)cc1 (stereo not drawn)
RESULT: -7.85

QUERY: Please look at this compound and report its Inhibition: CCCNC(=O)C(Cc1ccccc1C)NC(=O)c1ccc(C(F)(F)F)cc1 (stereo not drawn)
RESULT: -3.03

----------
Inhibition reference
Test system: Candida albicans
Details: 32 ug/mL
Description: Antifungal activity against Candida albicans ATCC 90028 (CO-ADD:FG_001); MIC in YNB media using NBS plates, by OD630
Measured potencies and affinities stand elsewhere.
Unit % implied. Number only.

In the examples that follow, each entry is paired with its recorded Inhibition.
compound="CCCNC(=O)C(Cc1ccccc1)NC(=O)c1ccc(F)cc1 (configuration not stated)" tested_target="Candida albicans" unit_annotation=% endpoint_value=2.91
compound="[C-]#[N+]c1ccc(C(=O)NC(CC)C(=O)NCCC)cc1 (configuration not stated)" tested_target="Candida albicans" unit_annotation=% endpoint_value=-0.99
compound="[C-]#[N+]c1ccc(C(=O)NC(Cc2ccc(F)cc2)C(=O)NCCC)cc1 (configuration not stated)" tested_target="Candida albicans" unit_annotation=% endpoint_value=5.24
compound="CCCNC(=O)C(Cc1ccc(F)cc1)NC(=O)c1ccccc1 (configuration not stated)" tested_target="Candida albicans" unit_annotation=% endpoint_value=2.54
compound="[C-]#[N+]c1ccc(C(=O)NC(Cc2ccc(C(F)(F)F)cc2)C(=O)NCCC)cc1 (configuration not stated)" tested_target="Candida albicans" unit_annotation=% endpoint_value=5.79
compound="[C-]#[N+]c1ccc(C(=O)NC(Cc2ccccc2F)C(=O)NCCC)cc1 (configuration not stated)" tested_target="Candida albicans" unit_annotation=% endpoint_value=1.53

QUERY: Give Inhibition for CCCNC(=O)C(Cc1ccccc1C)NC(=O)c1ccc(C(F)(F)F)cc1 (configuration not stated) tested on Candida albicans.
RESULT: 0.78

----------
System: Klebsiella pneumoniae
Details: Concentration 32 ug.mL-1; ASSAY_TEST Inhibition of Bacterial Growth; detection method Absorption (OD600); MEDIA CAMHB; plate type 384well; NBS; CORNING #3640; time 18 hr
Description: Antibacterial activity against Klebsiella pneumoniae MDR ATCC 70063 (CO-ADD:GN_003); MIC in CAMBH media using NBS plates, by OD(600)
Results with a measured potency or affinity are listed apart.
measure: Inhibition
Please provide the amount together with its unit, number first.

molecule="[C-]#[N+]c1ccc(C(=O)NC(Cc2ccc(F)cc2)C(=O)NCCC)cc1 (configuration not stated)" endpoint_value=14.12%
molecule="CCCNC(=O)C(Cc1ccc(F)cc1)NC(=O)c1ccccc1 (configuration not stated)" endpoint_value=12.41%
molecule="[C-]#[N+]c1ccc(C(=O)NC(CC#C)C(=O)NCCC)cc1 (configuration not stated)" endpoint_value=15.5%
molecule="[C-]#[N+]c1ccc(C(=O)NC(CC)C(=O)NCCC)cc1 (configuration not stated)" endpoint_value=12.56%
molecule="[C-]#[N+]c1ccc(C(=O)NC(CC=C)C(=O)NCCC)cc1 (configuration not stated)" endpoint_value=4.31%

QUERY: Please look at this molecule and report its Inhibition: CCCNC(=O)C(Cc1ccccc1)NC(=O)c1ccc(F)cc1 (configuration not stated)
RESULT: 15.24%

QUERY: Please look at this molecule and report its Inhibition: CCCNC(=O)C(Cc1ccccc1)NC(=O)Cc1ccccc1 (configuration not stated)
RESULT: 14.33%
